molecular target: σ2R (Rattus norvegicus, UniProt Q5U3Y7); experiment: σ2R radioligand binding ([3H]DTG, liver membranes); settings: σ2R Ki, mean [CI 95%]; [3H]DTG with (+)-pentazocine mask
metricName: pKi
Recall that pKi is obtained by taking minus log10 of the concentration measured in molar.

{"smilesEntry": "O=C(c1ccc(OCCCN2CCN(c3ccncc3)CC2)cc1)C1CC1", "pKi": 7.00}
{"smilesEntry": "O=C(c1ccccc1)c1ccc(OCCCN2CCN(c3ccncc3)CC2)cc1", "pKi": 7.53}
{"smilesEntry": "CCc1ccc(OCCCN2CCN(c3ccncc3)CC2)cc1", "pKi": 7.19}
{"smilesEntry": "CC(=O)c1ccc(OCCCCCCCCN2CCN(c3ccncc3)CC2)cc1", "pKi": 7.22}
{"smilesEntry": "c1ccc(-c2ccc(OCCCN3CCN(c4ccncc4)CC3)cc2)cc1", "pKi": 6.97}

Query string: Report measured pKi on σ2R (Rattus norvegicus, UniProt Q5U3Y7); entry: CCC(C)(C)c1ccc(OCCCCN2CCN(c3ccncc3)CC2)cc1
Result string: 7.00

Query string: Tell me pKi of CC(C)(C)c1ccc(OCCCCN2CCN(c3ccncc3)CC2)cc1 when tested on σ2R (Rattus norvegicus, UniProt Q5U3Y7).
Result string: 6.76

Query string: Given O=C(c1ccc(Cl)cc1)c1ccc(OCCCN2CCN(c3ccncc3)CC2)cc1 , report its pKi on σ2R (Rattus norvegicus, UniProt Q5U3Y7).
Result string: 7.49

Query string: Give the observed pKi of CCC(=O)c1ccc(OCCCCCCCCN2CCN(c3ccncc3)CC2)cc1 for σ2R (Rattus norvegicus, UniProt Q5U3Y7).
Result string: 7.18

----------
Measured pKi values are reported for all entries that follow.
Target: σ2R (Rattus norvegicus, UniProt Q5U3Y7)
Sequence (Q5U3Y7 1-176): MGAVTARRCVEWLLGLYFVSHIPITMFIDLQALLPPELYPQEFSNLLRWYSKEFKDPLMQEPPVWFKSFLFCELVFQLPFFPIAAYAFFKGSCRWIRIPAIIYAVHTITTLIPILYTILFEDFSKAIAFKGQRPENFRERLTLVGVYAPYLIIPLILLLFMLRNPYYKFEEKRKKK
Test: σ2R radioligand binding ([3H]DTG, liver membranes)
Details: σ2R Ki, mean [CI 95%]; [3H]DTG with (+)-pentazocine mask
Units for pKi: none; it is -log10 of a concentration expressed in mol/L.

{"compound": "CCC(=O)c1ccc(OCCCCCCN2CCN(c3ccncc3)CC2)cc1 [Compound 17]", "pKi": 6.96}
{"compound": "N#Cc1ccc(-c2ccc(OCCCN3CCN(c4ccncc4)CC3)cc2)cc1 [Compound 7]", "pKi": 7.12}
{"compound": "CC(=O)c1ccc(OCCCN2CCN(c3ccncc3)CC2)cc1 [Compound 3]", "pKi": 6.61}
{"compound": "CC(C)(C)c1ccc(OCCCN2CCN(c3ccncc3)CC2)cc1 [Compound 2]", "pKi": 6.89}

Query string: For the compound O=C(c1ccc(F)cc1)c1ccc(OCCCN2CCN(c3ccncc3)CC2)cc1 [Compound 10] , give its measured pKi value.
Result string: 6.79

Query string: Please indicate pKi recorded for CC(=O)c1ccc(OCCCCN2CCN(c3ccncc3)CC2)cc1 [Compound 15]
Result string: 5.75

Query string: Write down pKi measured for item O=C(c1ccccc1)c1ccc(OCCCN2CCCCC2)cc1 [Compound 12]
Result string: 7.02

Query string: Complete the entry with pKi for CC(C)(C)c1ccc(OCCCCCCN2CCN(c3ccncc3)CC2)cc1 [Compound 18]
Result string: 6.75

Query string: Output pKi of CC(=O)c1ccc(OCCCCCCN2CCN(c3ccncc3)CC2)cc1 [Compound 16]
Result string: 6.82

Values were extracted from paper PMC8739840.
